- tested-system: PKM2 (Homo sapiens, UniProt P14618)
- Sequence (P14618 whole entry): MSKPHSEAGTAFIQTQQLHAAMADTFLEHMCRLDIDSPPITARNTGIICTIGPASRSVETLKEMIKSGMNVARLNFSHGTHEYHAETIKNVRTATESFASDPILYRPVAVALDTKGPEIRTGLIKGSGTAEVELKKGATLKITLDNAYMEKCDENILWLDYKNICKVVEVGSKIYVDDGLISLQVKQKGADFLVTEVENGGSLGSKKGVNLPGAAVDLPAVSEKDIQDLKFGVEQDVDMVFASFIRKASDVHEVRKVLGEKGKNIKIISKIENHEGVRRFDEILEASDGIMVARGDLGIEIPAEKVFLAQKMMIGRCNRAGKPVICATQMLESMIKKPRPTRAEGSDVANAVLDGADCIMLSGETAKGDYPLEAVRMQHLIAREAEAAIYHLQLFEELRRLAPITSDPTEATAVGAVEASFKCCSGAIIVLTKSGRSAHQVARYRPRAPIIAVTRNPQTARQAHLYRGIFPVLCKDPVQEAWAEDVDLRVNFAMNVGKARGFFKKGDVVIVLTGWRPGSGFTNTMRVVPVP
- test-name: PKM2 Assay (activation; LDH-coupled, NADH absorbance at 340 nm)
- Assay type: biochemical
- settings: PKM2 50 ng/well, ADP 0.7 mM, PEP 0.15 mM, no FBP in Reaction Mix
- Text: […]
measured-property: AC50

// lookup AC50 for Cn1c(=O)oc2cc(S(=O)(=O)Nc3ccc(OC(F)(F)F)c(Br)c3)ccc21
1 to 10 µM

// lookup AC50 for COCCn1c(=O)oc2cc(C)c(S(=O)(=O)Nc3ccc(F)c(Cl)c3)cc21
1 to 10 µM

// lookup AC50 for CC(=O)Nc1ccc(NS(=O)(=O)c2cc3c(cc2C)oc(=O)n3C)cc1
> 100 µM

// lookup AC50 for Cc1cc2oc(=O)n(C)c2cc1NS(=O)(=O)c1cccc(Cl)c1
10 to 50 µM

// lookup AC50 for COc1cc(NS(=O)(=O)c2cc3c(cc2C)oc(=O)n3C)cc(OC)c1
1 to 10 µM

// lookup AC50 for Cn1c(=O)oc2cc(S(=O)(=O)Nc3ccc(Cl)c(Cl)c3)ccc21
1 to 10 µM

// lookup AC50 for CCn1c(=O)oc2cc(S(=O)(=O)Nc3cc(Cl)ccc3OC)c(C)cc21
1 to 10 µM

// lookup AC50 for Cc1cc2sc(=O)sc2cc1S(=O)(=O)Nc1ccc(F)cc1
1 to 10 µM

// lookup AC50 for COc1ccc(Cl)cc1S(=O)(=O)N1CCN(S(=O)(=O)c2ccc3c(c2)oc(=O)n3C)CC1
1 to 10 µM

// lookup AC50 for O=c1oc2cc(S(=O)(=O)Nc3ccc(F)cc3)ccc2n1CCc1ccccc1
1 to 10 µM
